# Protocol Notes: Density measurements of test solutions
# Format: physicochemical
# Measurement Parameters: purified water, 0.05%

{"Item Smiles": "OC[C@H]1O[C@@H]2O[C@H]3[C@H](O)[C@@H](O)[C@@H](O[C@H]4[C@H](O)[C@@H](O)[C@@H](O[C@H]5[C@H](O)[C@@H](O)[C@@H](O[C@H]6[C@H](O)[C@@H](O)[C@@H](O[C@H]7[C@H](O)[C@@H](O)[C@@H](O[C@H]8[C@H](O)[C@@H](O)[C@@H](O[C@H]9[C@H](O)[C@@H](O)[C@@H](O[C@H]1[C@H](O)[C@H]2O)O[C@@H]9CO)O[C@@H]8CO)O[C@@H]7CO)O[C@@H]6CO)O[C@@H]5CO)O[C@@H]4CO)O[C@@H]3CO", "Density (at 22 C.) (g/cm³)": 0.995}
